For each record, write down the corresponding IC50.
Molecular target: Replicase polyprotein 1ab (Severe acute respiratory syndrome coronavirus 2, UniProt P0DTD1)
Assay: Inhibition of recombinant full length his tagged C-terminal SARS-CoV 2 main protease (M1 to Q307 residues) expressed in Escherichia coli BL21 (DE3) cells using LGSAVLQ-Rh110-dP as peptide substrate preincubated for 1 hr followed by substrate addition and measured after 24 hrs by fluorescence based analysis
Reply numerically in nM, unit not repeated.

The value of IC50 measured for the molecule Cc1ccc2c(c1)cc(C(=O)NCCCNC(=O)n1cc(F)c(=O)[nH]c1=O)n2CC(C)C turned out to be 1200

Given item O=C(NCCCNC(=O)n1cc(F)c(=O)[nH]c1=O)c1cc2ccccc2[nH]1 , the value recorded as its IC50 is 2600

// IC50 lookup, molecule = CCCCCCNC(=O)n1cc(Br)c(=O)[nH]c1=O , result: 7400

# IC50 (molecule: CC(C)Cn1c(C(=O)NCCCNC(=O)n2cc(F)c(=O)[nH]c2=O)cc2cc(OC(F)(F)F)ccc21 ) is 2500

The recorded IC50 for CC(C)Cn1c(C(=O)NCCCNC(=O)n2cc(F)c(=O)[nH]c2=O)cc2cc(C(F)(F)F)ccc21 is 790

----------
Assign IC50 to each entry below.
Molecular target: UniProt P0DTD1
Experiment: Inhibition of recombinant full length SARS-CoV-2 main protease expressed in Escherichia coli preincubated for 10 mins followed by substrate addition and measured every 30 secs for 10 mins
Reply with just the number (in nM).

The recorded IC50 for O=C(CC1CCCCC1)N1CCC(CCCNC(=O)n2cc(F)c(=O)[nH]c2=O)CC1 is 40

In plain terms, CC(C)(C)CC(=O)N1CCC(CCCNC(=O)n2cc(F)c(=O)[nH]c2=O)CC1 has a documented IC50 of 53

----------
System: SARS-CoV-2
Test: microbe, parasite or virus in culture
Settings: Severe acute respiratory syndrome coronavirus 2, USA/NYU-VC-003/2020, A549-ACE2
MEASUREMENT KIND: EC50 (nM)
State the answer as a number, implicitly in nM.

Entry COc1cccc2[nH]c(C(=O)N[C@@H](CC(C)C)C(=O)N[C@@H](C[C@@H]3CCNC3=O)C(=O)CO)cc12 ; EC50 = 221

----------
Experiment: Selectivity index, ratio of CC50 for human Calu-3 cells to EC50 for SARS CoV-2 (hCoV-19/Korea/KCDC06/2020) infected in human Calu-3 cells
Assay type: toxicity, cell-based
Details: read-out: Ratio CC50/EC50
I'd be grateful if you could share measured selectivity ratio for these entries.

The molecule listed as CC(C)(C)CC(=O)N1CCC(CCCNC(=O)n2cc(F)c(=O)[nH]c2=O)CC1 shows selectivity ratio equal to 8.3

The molecule O=C(NCCC1CCCC1)n1cc(F)c(=O)[nH]c1=O showed selectivity ratio equal to > 2

Form: molecule = CCC(CC)COC(=O)[C@H](C)N[P@](=O)(OC[C@H]1O[C@@](C#N)(c2ccc3c(N)ncnn23)[C@H](O)[C@@H]1O)Oc1ccccc1 ; selectivity ratio = > 172

The molecule listed as CC(C)Cn1c(C(=O)NCCCNC(=O)n2cc(F)c(=O)[nH]c2=O)cc2cc(F)ccc21 shows selectivity ratio equal to 3.3

Lab note: CC(C)Cn1c(C(=O)NCCCNC(=O)n2cc(F)c(=O)[nH]c2=O)cc2cc(Cl)ccc21 gave selectivity ratio of > 5.5
